Answer each item with its documented logP.
- ASSAY_TEXT: method code SF, from Hansch, C. & Leo, A. (1987). Log P database [Dataset]. Pomona College Medicinal Chemistry Project.

query: Requested field: logP. Item: "CNC(=S)NCc1ccccc1"
result: 1.35

query: Requested field: logP. Item: "CN(C)/N=N/c1cccc([N+](=O)[O-])c1"
result: 2.75

query: Requested field: logP. Item: "COc1cccc(OC)c1OC"
result: 1.53

query: Requested field: logP. Item: "COC(=O)NS(=O)(=O)c1ccc(N)cc1"
result: -0.27

query: Requested field: logP. Item: "CC(=O)OC[C@@H](OC(C)=O)[C@@H](OC(C)=O)[C@H](OC(C)=O)[C@H](C=O)OC(C)=O"
result: 0.63

query: Requested field: logP. Item: "O=[N+]([O-])c1ccccc1C(F)(F)F"
result: 2.58

query: Requested field: logP. Item: "O=S1(=O)NC=Nc2cc(Cl)ccc21"
result: 1.01

query: Requested field: logP. Item: "CNc1ccccn1"
result: 1.07

* * *

- ASSAY_TEXT: method code SF, from Hansch, C. & Leo, A. (1987). Log P database [Dataset]. Pomona College Medicinal Chemistry Project.
- TEST_CONTEXT: pH 10.8
ENDPOINT_NAME: logD
When you answer, write just the number.

query: Requested field: logD. Item: "CNC(=S)NCCSCc1nc[nH]c1C"
result: 0.59

* * *

- ASSAY_TEXT: method code SF, from Hansch, C. & Leo, A. (1987). Log P database [Dataset]. Pomona College Medicinal Chemistry Project.
Note to self: use fulfilled only for logP readings below 1; a reading exactly at 1 still gets not fulfilled.

query: A record lists "CCOC(CP(=O)(OCC)OCC)OCC" . Is its logP below 1?
result: fulfilled

query: A record lists "c1ccc(Sc2ccccc2)cc1" . Is its logP below 1?
result: not fulfilled

query: A record lists CCC(C)NC(=O)C(=Cc1ccccc1)Cc1ccccc1 (stereo not given) . Is its logP below 1?
result: not fulfilled

query: A record lists "Cc1ccsc1" . Is its logP below 1?
result: not fulfilled

query: A record lists "O=c1c2ccccc2ncn1O" . Is its logP below 1?
result: fulfilled

query: A record lists CC1OC(=O)c2ccccc21 (stereo not given) . Is its logP below 1?
result: not fulfilled

query: A record lists "CCC(=O)c1ccncc1" . Is its logP below 1?
result: fulfilled

query: A record lists "CCCCOc1cccc(C=C(C(=O)OCC)C(=O)OCC)c1" . Is its logP below 1?
result: not fulfilled

query: A record lists "CC1=Nc2ccc(C)cc2S(=O)(=O)N1" . Is its logP below 1?
result: fulfilled

query: A record lists "c1ccc(CSc2nnc[nH]2)cc1" . Is its logP below 1?
result: not fulfilled

query: A record lists "CNC(=S)NC" . Is its logP below 1?
result: fulfilled

query: A record lists "COc1cc(C=O)ccc1OCCO" . Is its logP below 1?
result: fulfilled

query: A record lists "O=C(O)c1ccc(C(F)(F)F)cc1" . Is its logP below 1?
result: not fulfilled

query: A record lists "COc1cc(/C=N/O)ccc1OCCOC(=O)c1ccc(Cl)cc1" . Is its logP below 1?
result: not fulfilled

query: A record lists "O=c1c2ccccc2sc2ccccc12" . Is its logP below 1?
result: not fulfilled

* * *

- ASSAY_TEXT: method code SF, from Hansch, C. & Leo, A. (1987). Log P database [Dataset]. Pomona College Medicinal Chemistry Project.
Note to self: use true (1) only for logP readings below 1; a reading exactly at 1 still gets false (0).

query: A record lists "O=C(O)COc1ccc(Cl)c(C(=O)O)c1" . Is its logP below 1?
result: false (0)

query: A record lists "Nc1ccc(C2CCCCC2)cc1" . Is its logP below 1?
result: false (0)

query: A record lists "CN(C)C(=O)Nc1ccc([N+](=O)[O-])cc1" . Is its logP below 1?
result: false (0)

query: A record lists O=[N+]([O-])c1ccc2[nH]c(C(O)C(O)c3nc4cc([N+](=O)[O-])ccc4[nH]3)nc2c1 (configuration not stated) . Is its logP below 1?
result: false (0)

query: A record lists "COC(=O)CCC(=O)N(C)c1ccc(S(=O)(=O)N(C)C)cc1" . Is its logP below 1?
result: true (1)

query: A record lists "O=C(O)c1ccoc1" . Is its logP below 1?
result: false (0)

query: A record lists "CN(C)C(=O)CCc1ccco1" . Is its logP below 1?
result: true (1)

* * *

Answer each item with its documented logP.
- ASSAY_TEXT: method code SF, from Hansch, C. & Leo, A. (1987). Log P database [Dataset]. Pomona College Medicinal Chemistry Project.
When you answer, write just the number.

query: Requested field: logP. Item: "Nc1ccc(OC(=O)CNC(=O)c2ccccc2)cc1"
result: 1.01

query: Requested field: logP. Item: O=C1NC(c2cccc3ccccc23)Nc2ccccc21 (centres undefined)
result: 2.96

query: Requested field: logP. Item: "CC(C)(C)c1cc(O)ccc1[N+](=O)[O-]"
result: 3.65

query: Requested field: logP. Item: "O=C(NCc1ccccc1)c1ccco1"
result: 1.81

query: Requested field: logP. Item: "Cc1c(-c2ccccc2)oc2ccccc2c1=O"
result: 3.92

query: Requested field: logP. Item: "COC(=O)Cc1ccsc1"
result: 1.46

query: Requested field: logP. Item: "OC(c1ccccc1)(c1ccccc1)c1ccccc1"
result: 3.68

query: Requested field: logP. Item: "S=C(Nc1ccccc1)c1ccccc1"
result: 3.03

query: Requested field: logP. Item: "COc1ccc2[nH]c(CCCCc3nc4cc(OC)ccc4[nH]3)nc2c1"
result: 1.42

query: Requested field: logP. Item: "CCOC(=O)NC"
result: 0.34

query: Requested field: logP. Item: "COC(=O)c1ccccc1NC(C)=O"
result: 1.65

query: Requested field: logP. Item: "CCOP(=S)(OCC)Oc1ccc(SC)c(Cl)c1"
result: 5.06

query: Requested field: logP. Item: "CN(C)c1ccc(C(N)=O)cc1"
result: 1.14

query: Requested field: logP. Item: "O=C1CCN(c2ccccc2)N1"
result: 0.89

* * *

Answer each item with its documented logD.
- ASSAY_TEXT: method code SF, from Hansch, C. & Leo, A. (1987). Log P database [Dataset]. Pomona College Medicinal Chemistry Project.
- TEST_CONTEXT: pH 2.2
When you answer, write just the number.

query: Requested field: logD. Item: "CCCc1c(OCCCCc2nnn[nH]2)ccc(C(C)=O)c1O"
result: 3.82

query: Requested field: logD. Item: "c1ccc(Cc2nn[nH]n2)cc1"
result: 1.36

* * *

- ASSAY_TEXT: method code SF, from Hansch, C. & Leo, A. (1987). Log P database [Dataset]. Pomona College Medicinal Chemistry Project.
- TEST_CONTEXT: pH 11.0
ENDPOINT_NAME: logD
When you answer, write just the number.

query: Requested field: logD. Item: "c1cncc(CN2CCOCC2)c1"
result: 0.04

query: Requested field: logD. Item: "c1cncc(CN2CCCCC2)c1"
result: 1.49

query: Requested field: logD. Item: "c1cncc([C@@H]2CCCN2)c1"
result: 0.17

query: Requested field: logD. Item: "CCN(CC)CCc1cccnc1"
result: 1.23

query: Requested field: logD. Item: "CN1CCCC[C@H]1c1cccnc1"
result: 0.96

query: Requested field: logD. Item: "CCN(CC)Cc1cccnc1"
result: 1.01

query: Requested field: logD. Item: N=c1ccn2c(n1)OC1C(O)C(CO)OC12 (configuration not stated)
result: -2.37

query: Requested field: logD. Item: "CNCc1cccnc1"
result: 0.39

query: Requested field: logD. Item: "c1cncc(CCN2CCCC2)c1"
result: 1.34

query: Requested field: logD. Item: "c1cncc([C@@H]2CCCCN2)c1"
result: 0.97

query: Requested field: logD. Item: "CCCCNCc1cccnc1"
result: 1.34

query: Requested field: logD. Item: "CN(C)C=CCCc1cccnc1"
result: 1.68

query: Requested field: logD. Item: "CNC=CCCc1cccnc1"
result: 1.13

query: Requested field: logD. Item: "CC(C)N(Cc1cccnc1)C(C)C"
result: 2.27

query: Requested field: logD. Item: "CN(C)CCCCc1cccnc1"
result: 1.49

query: Requested field: logD. Item: "CN(C)CCc1cccnc1"
result: 0.82

query: Requested field: logD. Item: "c1cncc(CCN2CCCCC2)c1"
result: 1.66

* * *

- ASSAY_TEXT: method code SF, from Hansch, C. & Leo, A. (1987). Log P database [Dataset]. Pomona College Medicinal Chemistry Project.
Note to self: use yes only for logP readings below 0.9; a reading exactly at 0.9 still gets no.

query: A record lists "CCOC(=O)C(F)(F)C(F)(F)F" . Is its logP below 0.9?
result: no

query: A record lists "Cc1cc(CSc2ccccc2Cl)c(O)c(C(=O)O)c1" . Is its logP below 0.9?
result: no

query: A record lists "Cn1ccccc1=O" . Is its logP below 0.9?
result: yes

query: A record lists "COC(=O)CNC(=O)c1ccc([N+](=O)[O-])cc1" . Is its logP below 0.9?
result: no

query: A record lists "CCOC(=O)C(=Cc1ccc(OC)cc1)C(=O)OCC" . Is its logP below 0.9?
result: no

query: A record lists NC(=O)Nc1ccc(C(O)C(CO)NC(=O)C(Cl)Cl)cc1 (centres undefined) . Is its logP below 0.9?
result: yes

query: A record lists "CCCCCCOC(=O)c1ccc(O)cc1" . Is its logP below 0.9?
result: no

query: A record lists "CS(=O)(=O)Nc1ccccc1" . Is its logP below 0.9?
result: no

query: A record lists "O=[N+]([O-])c1ccc2[nH]c(CCCCc3nc4cc([N+](=O)[O-])ccc4[nH]3)nc2c1" . Is its logP below 0.9?
result: no

query: A record lists "CC(C)c1ccc(C(N)=O)cc1" . Is its logP below 0.9?
result: no

query: A record lists "CC(C)n1cc(C(C)(C)C)nc1SSc1nc(C(C)(C)C)cn1C(C)C" . Is its logP below 0.9?
result: no

query: A record lists "CC(=O)Nc1cc(OCC(=O)O)ccc1Cl" . Is its logP below 0.9?
result: yes

query: A record lists "NC(=S)NN=Cc1ccccc1" . Is its logP below 0.9?
result: no

query: A record lists "O=NN1CCOCC1" . Is its logP below 0.9?
result: yes
